B1: glmS ribozyme (parent)
chain: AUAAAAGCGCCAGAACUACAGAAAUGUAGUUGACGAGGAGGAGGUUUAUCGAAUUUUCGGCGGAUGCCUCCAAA

variants of: B1; assay: self-cleavage kobs at 10000 uM GlcN6P; higher = faster cleavage; RNA array; settings: with glucosamine-6-phosphate
This sample holds only a part of the variants without activity.
MEASURE_NAME: self-cleavage kobs at 10000 uM GlcN6P (s⁻¹)
Express your answer in s⁻¹, writing the number without its unit.

Below, 2 variants whose answers are already recorded.
Lookup: Tell me measured self-cleavage kobs at 10000 uM GlcN6P for A12C U30C C71U please.
Found: 0.00141

Lookup: Tell me measured self-cleavage kobs at 10000 uM GlcN6P for A14U G44U U45G U46G please.
Found: 4.76e-05

Others:
Lookup: Tell me measured self-cleavage kobs at 10000 uM GlcN6P for C16U A52U please.
Found: 0.000274

Lookup: Tell me measured self-cleavage kobs at 10000 uM GlcN6P for G29A A39G please.
Found: 0.0102

Lookup: Tell me measured self-cleavage kobs at 10000 uM GlcN6P for G13U U30C please.
Found: 0.000354

Lookup: Tell me measured self-cleavage kobs at 10000 uM GlcN6P for G13A C50G C58A C70U please.
Found: 9.7e-05
